tested on: OVCAR-8 ovarian; assay: NCI-60 one-dose screen, 48 h; settings: 10 µM unless noted
This is part of a sample that, as a whole, favours compounds with a hit. Of some 83,000 tested, about 20% had one in any assay. Activity calls are given as the source filed them. How the source made its calls: active means growth percent below 10; inactive means the rest.
Please answer using one outcome listed in 1 (yes) for active, 0 (no) for inactive

Query: Returns: the outcome recorded for `COc1ccc(-c2cc(-c3cn(-c4cccc(Cl)c4)nc3-c3ccc(OC)cc3)on2)cc1` in this assay.
Response: 0 (no)

Query: Now consider `C[C@H](c1nc2ccc(C#N)cc2[nH]1)[C@H]1CC[C@H]2[C@@H]3CCC4=CC(=O)CC[C@]4(C)[C@H]3CC[C@]12C` and answer again.
Response: 0 (no)

Query: Now consider `CCOC(=O)c1c(C)nc2ccccc2c1/C=C/c1ccc(F)cc1` and answer again.
Response: 0 (no)

Query: Now consider `N[C@@H]1CCC[C@H]1NCCCCN1C(=O)c2cccc3cc([N+](=O)[O-])cc(c23)C1=O` and answer again.
Response: 0 (no)

Query: Now consider `CSc1ccc(N2C(=N)C(=S)N(c3ccc(C)cc3)C2=O)cc1` and answer again.
Response: 0 (no)

Query: Now consider CCN(CC)C(=O)C1=C(C)NC(=O)NC1c1ccc2c(c1)OCO2 (stereo unspecified) and answer again.
Response: 0 (no)

Query: Now consider `CC1=Nc2cnc(Nc3ccc(N4CCCCC4)cc3)nc2Nc2ccccc21` and answer again.
Response: 0 (no)

Query: Now consider `CC1=C(Cl)C(=O)c2cc(C)ccc2C1=O` and answer again.
Response: 0 (no)

----------
test system: SNB-75 CNS; assay: NCI-60 one-dose screen, 48 h (100 = growth as untreated, 0 = no growth, -100 = all killed); conditions: 10 µM unless noted
This is part of a sample that, as a whole, favours compounds with a hit. Of some 83,000 tested, about 20% had one in any assay.
Below is a list of entries, each paired with its recorded growth value.
Express the result in % but write the number alone.

# count of solved cases: 4
CCCn1c(=S)sc2c(NNC(C)=O)nc(C)nc21 ... 89.9
COc1cc(-c2ccc(-c3ccc(C(=N)N)cc3)s2)cc(OC)c1OC ... 64.8
O=[N+]([O-])c1ccccc1Sc1ccccc1[N+](=O)[O-] ... 80.8
COc1nc(/C=C\Nc2ccc3c(c2)OCCOCCOCCOCCO3)nc(OC)n1 ... 72.3

We next turn to a different molecule, shown below.
Query: Find the recorded growth belonging to O=C(c1ccc(Br)cc1)C(Br)C(c1ccc(Cl)cc1)C(c1ccccc1)[N+](=O)[O-] (stereo not given) and report it.
Response: 89.4

----------
tested on: DU-145 prostate; assay: NCI-60 one-dose screen, 48 h; details: 10 µM unless noted
About 83,000 compounds went through this panel and 20% of them were active in at least one assay; those are over-represented in the sample as a whole. The source made the active and inactive calls. The calls were made as follows: active = growth percent below 10; inactive = the rest.
Please answer using one outcome listed in yes (active), no (inactive)

Example entries begin here.
CNC(=O)c1cc(Oc2ccc3c(c2)sc2nc(-c4ccc(Cl)c(C(F)(F)F)c4)cn23)ccn1 ... no
Nc1nc(N)c2c(n1)NC(c1cccc(Nc3ccnc4cc(C(F)(F)F)ccc34)c1)CC(c1ccc3c(c1)OCO3)=N2 (centres undefined) ... no
CCOC(=O)CC1CSC(N/N=C/c2ccc(F)c(Br)c2)=N1 (centres undefined) ... no
Cn1cc(-c2nc3c(F)cc4[nH]ncc4c3c3c2CCCC3)c(C(F)(F)F)n1 ... no
CCOC(=O)C/C(=N\Nc1cc(=O)[nH]c2ccc(OC)cc12)C(=O)OCC ... no
COc1ccc(-c2cc(-c3cn(-c4cccc(Cl)c4)nc3-c3ccc(OC)cc3)on2)cc1 ... no

Query: Returns: the outcome recorded for `COc1ccc(-c2nc3ccc(C)cc3c3c2c(=O)n(C)c(=O)n3C)cc1OC` in this assay.
Response: no

Query: Now consider `COC(=O)[C@]1(C)CCC[C@]2(C)[C@H]3C[C@@H]4[C@H]5[C@@H]6CC/C(=N\OCC/C(N)=N/O)[C@H]5[C@@]3(CC[C@H]21)CC4(C(C)C)O6` and answer again.
Response: no

Query: Now consider C=CC(CC(c1ccccc1)(c1ccccc1)c1ccccc1)N(CC)CC (centres undefined) and answer again.
Response: no

Query: Now consider `COC(=O)[C@@]12CC=C(C)[C@]3(C[C@H](c4ccoc4)OC3=O)[C@H]1C=C[C@@H](O)[C@@]2(O)C(=O)OC` and answer again.
Response: no

Query: Now consider `COc1ccc(/C=C(\C(=O)NCc2cccnc2)S(=O)(=O)c2ccccc2)cc1OC` and answer again.
Response: yes

Query: Now consider `Cc1nc2ccccc2c(/C=C/c2ccc(F)cc2)c1C(=O)/C=C/c1ccccc1` and answer again.
Response: no

Query: Now consider `CC1=C(Cl)C(=O)c2cc(C)ccc2C1=O` and answer again.
Response: no

Query: Now consider `CC1(C)CC[C@]23CC[C@]4(C)[C@H](CC[C@@H]5[C@@]6(C)C/C(=C/O)C(=O)C(C)(C)[C@@H]6CC[C@]54C)[C@H]2[C@H]1OC3` and answer again.
Response: no

Query: Now consider C#Cc1cccc(NC(=O)C2CCCCN2C(=O)CCl)c1 (centres undefined) and answer again.
Response: yes

Query: Now consider `CCOC(=O)c1[nH]cc2c1CCc1sc(Nc3ccccn3)nc1-2` and answer again.
Response: no

----------
test system: SN12C renal; assay: NCI-60 one-dose screen, 48 h (100 = growth as untreated, 0 = no growth, -100 = all killed); settings: 10 µM unless noted
This is part of a sample that, as a whole, favours compounds with a hit. Of some 83,000 tested, about 20% had one in any assay.
VALUE TYPE: growth (%)
Express the result in % but write the number alone.

CCCc1cc(=O)oc2c(C(=O)CC(C)C)c(O)c(CC=C(C)C)c(O)c12 ... 11.6
Cn1cc(-c2csc(-c3cn(C)c4ccccc34)n2)c2cnccc21 ... 67.8
S=c1ccnc[nH]1 ... 96.8
CN(C)CCCn1c2c(c3ccncc3c1=O)C(=O)c1ccccc1-2 ... 6.53
COc1ccc(OC)c(Nc2nnc(-c3cc(OC)c(OC)c(OC)c3)o2)c1 ... 89.5

We next turn to a different compound, shown below.
Query: Find the recorded growth belonging to `O=C1NC(=O)C(c2coc3cc(Br)ccc23)=C1c1c[nH]c2ccccc12` and report it.
Response: 55

----------
system: SR leukemia; assay: NCI-60 one-dose screen, 48 h; details: 10 µM unless noted
The panel holds about 83,000 compounds, 20% with a hit somewhere; the sample as a whole holds those more often. Calls of active or inactive are those of the source. Rule for the calls: active = growth percent below 10; inactive = the rest.
Please answer using one outcome listed in label 1 for active, label 0 for inactive

Example entries begin here.
CC(C)C1C2=C(NCCN1C(=O)c1ccncc1)C(C)(C)N(Cc1ccccc1)C2=O (centres undefined) ... label 0
O=C(/C=C/c1ccccc1)N(C1CCCCC1)C1CCCCC1 ... label 0
COCCn1cc(-c2csc(-c3c[nH]c4ccc(F)cc34)n2)c2cccnc21 ... label 1

Query: Returns: the outcome recorded for `CCOC(=O)C#Cc1c(C(=O)OCC)nnn1[C@@H]1O[C@H](COC)[C@@H](OC)[C@H]1OC` in this assay.
Response: label 1

Query: Now consider `Cc1ccc(-c2csc(NC(=O)CSc3nc(N)cc(N)n3)n2)cc1` and answer again.
Response: label 0

Query: Now consider `c1cc(OCCCCCOc2cccc(-c3nc4ccccc4[nH]3)c2)cc(-c2nc3ccccc3[nH]2)c1` and answer again.
Response: label 1

Query: Now consider `CC(C)CCC[C@@H](C)[C@H]1CC[C@H]2[C@@H]3CC=C4c5sc(Nc6cc(C(F)(F)F)cc(C(F)(F)F)c6)nc5CC[C@]4(C)[C@H]3CC[C@]12C` and answer again.
Response: label 0

Query: Now consider CCOC(=O)CC1CSC(N/N=C/c2ccc(F)c(Br)c2)=N1 (centres undefined) and answer again.
Response: label 0

Query: Now consider Nc1nc(N)c2c(n1)NC(c1cccc(Nc3ccnc4cc(C(F)(F)F)ccc34)c1)CC(c1ccc3c(c1)OCO3)=N2 (centres undefined) and answer again.
Response: label 1

----------
tested on: 786-0 renal; experiment: NCI-60 one-dose screen, 48 h (100 = growth as untreated, 0 = no growth, -100 = all killed); conditions: 10 µM unless noted
The panel holds about 83,000 compounds, 20% with a hit somewhere; the sample as a whole holds those more often. Active and inactive are the calls of the source. Rule for the calls: active = growth percent below 10; inactive = the rest.
Below is a list of entries, each paired with its recorded growth value.

# count of solved cases: 4
O=C(C[C@]1(O)C(=O)Nc2ccc(Br)cc21)c1ccco1 ... 108% (inactive)
COc1ccc(-c2nc(SCC(=O)Nc3nc4ccc(C)cc4s3)[nH]c(=O)c2C#N)cc1OC ... 105% (inactive)
COc1cccc(CNc2c3ccccc3nc3ccccc23)c1OC ... 38.8% (inactive)
N#C/C(=C\c1ccc(-c2cccc(Cl)c2)o1)C(=O)Nc1ncc(Cc2ccc(Cl)cc2)s1 ... 37.3% (inactive)

Query: Find the recorded growth belonging to `COc1cc(C=Nc2oc(-c3ccccc3)c(-c3ccccc3)c2C#N)cc(CN2CCCC2)c1O` and report it.
Response: 99.3% (inactive)

Query: Now consider `Cc1ccc2c(c1)=C/C(=C\c1cc(-c3ccccc3)[nH]c1O)C(=O)N=2` and answer again.
Response: 41.6% (inactive)
